tested on: WaGa; experiment: qHTS assay to identify novel small-molecules to repurpose for Merkel cell carcinoma treatment (AID 1296009); conditions: MCC and control cell lines, CellTiter-Glo viability, 72 h; series mostly up to 46 µM; also: nearly all actives have a fitted effect of over 60% in size
Results filed as inconclusive are left out. The source made the active and inactive calls. Calls follow the shape of the dose curve; as a rule, active = well fitted inhibition curve with a large enough effect; inconclusive = small, poorly fitted or top-dose-only effect; inactive = flat fitted curve, though single readings scatter.
Possible outcomes: active, inactive

molecule=CCc1cc(C(N)=S)ccn1 assigned_label=inactive
molecule=O=S(=O)(O)CCS assigned_label=inactive
molecule=C#CCN[C@@H]1CCc2ccccc21 assigned_label=inactive
molecule=O=C(O)c1ccc(-n2nc(-c3ccccc3O)nc2-c2ccccc2O)cc1 assigned_label=active
molecule="O=C(O)CSCC(=O)NC1CCSC1=O (configuration not stated)" assigned_label=inactive
molecule=CCOC(=O)c1ccc(OC(=O)CCCCCN=C(N)N)cc1 assigned_label=inactive
molecule=CC[C@H](C)C(=O)O[C@H]1C[C@@H](C)C=C2C=C[C@H](C)[C@H](CC[C@@H]3C[C@@H](O)CC(=O)O3)[C@H]21 assigned_label=inactive
molecule=CN1CCN(c2c(F)cc3c(=O)c(C(=O)O)cn4c3c2OCN4C)CC1 assigned_label=inactive
molecule=O=S(=O)(c1cccc2cnccc12)N1CCCNCC1 assigned_label=inactive
molecule=Nc1nc(N)nc(-c2cc(Cl)ccc2Cl)n1 assigned_label=inactive
molecule=CNS(=O)(=O)CCc1ccc2[nH]cc(C3CCN(C)CC3)c2c1 assigned_label=inactive
molecule=CNNCc1ccc(C(=O)NC(C)C)cc1 assigned_label=inactive
molecule="CCCCS(=N)(=O)CCC(N)C(=O)O (configuration not stated)" assigned_label=inactive
molecule=OC(Cn1cncn1)(Cn1cncn1)c1ccc(F)cc1F assigned_label=inactive
molecule=CC(C)OC(=O)C(C(=O)OC(C)C)=C1SC=CS1 assigned_label=inactive
molecule=Clc1ccccc1CN1CCc2sccc2C1 assigned_label=inactive
molecule=CC(C)OC(=O)OCOP(=O)(CO[C@H](C)Cn1cnc2c(N)ncnc21)OCOC(=O)OC(C)C assigned_label=inactive
molecule=NC(=O)c1cccnc1 assigned_label=inactive
molecule=CCOC(=O)[C@H](CCc1ccccc1)N[C@H]1CCc2ccccc2N(CC(=O)O)C1=O assigned_label=inactive
molecule=O[C@@H](CNC[C@H](O)[C@H]1CCc2cc(F)ccc2O1)[C@@H]1CCc2cc(F)ccc2O1 assigned_label=inactive
molecule=CCCOc1ccc(C(=O)OCCN(CC)CC)cc1N assigned_label=inactive
molecule="CC(C)C1CCC(C(=O)N[C@H](Cc2ccccc2)C(=O)O)CC1 (some centres not stated)" assigned_label=inactive
molecule="CCC(C)(C)c1ccc(CC(C)CN2C[C@@H](C)O[C@@H](C)C2)cc1 (some centres not stated)" assigned_label=inactive
molecule=Cc1nnc(C(=O)NC(C)(C)c2nc(C(=O)NCc3ccc(F)cc3)c(O)c(=O)n2C)o1 assigned_label=inactive
molecule=O=NN(CCCl)C(=O)NC1CCCCC1 assigned_label=inactive
molecule=COc1ncnc(NS(=O)(=O)c2ccc(N)cc2)c1OC assigned_label=inactive
molecule=COCCCOc1cc(C[C@@H](C[C@H](N)[C@@H](O)C[C@H](C(=O)NCC(C)(C)C(N)=O)C(C)C)C(C)C)ccc1OC assigned_label=inactive
molecule=O=C(N[C@H](CO)[C@H](O)c1ccc([N+](=O)[O-])cc1)C(Cl)Cl assigned_label=inactive
molecule="CC1=C(C(=O)O)N2C(=O)[C@@H](NC(=O)C(N)c3ccccc3)[C@H]2SC1 (some centres not stated)" assigned_label=inactive
molecule=CCn1cc(C(=O)O)c(=O)c2cc(F)c(N3CCNCC3)nc21 assigned_label=inactive
molecule=O=C(O)CCn1c2c(c3ccccc31)C[C@H](NS(=O)(=O)c1ccc(F)cc1)CC2 assigned_label=inactive
molecule=O=C(O)c1cn(C2CC2)c2cc(N3CCNCC3)c(F)cc2c1=O assigned_label=inactive
molecule="CC(=O)CC(c1ccccc1)c1c(O)c2ccccc2oc1=O (configuration not stated)" assigned_label=inactive
molecule=CC1=NN(c2ccccc2)C(=O)C1 assigned_label=inactive
molecule=C[C@]12C=CC(=O)C=C1CC[C@@H]1[C@@H]2C(=O)C[C@@]2(C)[C@H]1CC[C@]2(O)C(=O)CO assigned_label=inactive
molecule=CC[C@H](NC(C)C)[C@H](O)c1ccc(O)c2[nH]c(=O)ccc12 assigned_label=inactive
molecule=CCCc1cc(C(N)=S)ccn1 assigned_label=inactive
molecule=N[C@@H](C(=O)N[C@@H]1C(=O)N2C(C(=O)O)=C(Cl)CS[C@H]12)c1ccccc1 assigned_label=inactive
molecule="CC(N)C12CC3CC(CC(C3)C1)C2 (configuration not stated)" assigned_label=inactive
molecule=COc1ccc(C(=O)CC(=O)c2ccc(C(C)(C)C)cc2)cc1 assigned_label=inactive
molecule=NC(=O)N1c2ccccc2CC(=O)c2ccccc21 assigned_label=inactive
molecule="CCOCC(O)COc1ccc(NC(=O)CC[S+](C)C)cc1 (configuration not stated)" assigned_label=inactive
molecule=Oc1c(Cl)cc(Cl)c2cccnc12 assigned_label=active
molecule="O=C(NCC1CN(c2ccc(N3CCOCC3=O)cc2)C(=O)O1)c1ccc(Cl)s1 (configuration not stated)" assigned_label=inactive
molecule=O=c1oc2c(O)c(O)cc3c(=O)oc4c(O)c(O)cc1c4c23 assigned_label=inactive
molecule=CC(C)(C#N)c1cc(Cn2cncn2)cc(C(C)(C)C#N)c1 assigned_label=inactive
molecule="COc1ccccc1OCC(O)COC(N)=O (configuration not stated)" assigned_label=inactive

FYI, the data here is from PubChem BioAssay (NCATS).
